Molecular target: human TRPA1 (Homo sapiens)
Construct: expressed in transfected cells
Assay: Cell-based functional intracellular calcium ([Ca2+]i) assay, Fluo-4/Fluo-8, FlexStation, challenge with reference TRPA1 agonist (FFA, AITC or 4-HNE)
Settings: HEK293 cells expressing human TRPA1; IC50 class after addition of reference TRPA1 agonist (FFA, AITC or 4-HNE); read-out: human TRPA1-HEK Activity
measuredAttribute: IC50

// below: answered compounds
O=C(c1cc(-c2ccncc2)n(-c2ccccc2)n1)N1CCC(N2C(=O)OC[C@H]2c2ccccc2)CC1 > 25 µM
CN1C(=O)c2ccc(NC(=O)c3cc(-c4ccncc4)n(-c4ccccc4)n3)cc2C1=O > 25 µM
O=C(Nc1ccc2c(c1)COC2=O)c1cc(-c2ccncc2)n(-c2ccc(F)c(F)c2)n1 > 25 µM
N#Cc1ccc2c(c1)[nH]c(=O)n2C1CCN(C(=O)c2cc(-c3cccnc3)n(-c3ccc(C(F)(F)F)c(F)c3)n2)CC1 0.001 to 5 µM
O=C(c1nn(-c2ccc(F)c(C(F)(F)F)c2)c2c1CCc1cccnc1-2)N1CCC(n2c(=O)[nH]c3ccc(F)c(F)c32)CC1 0.001 to 5 µM
Cc1ccc(-c2cc(C(=O)N3CCC4(CC3)C(=O)NCN4c3ccc(F)cc3)nn2-c2ccc(C(F)(F)F)c(F)c2)cn1 5 to 25 µM

# batch size: 4; output IC50 per entry
1. O=C(c1cc(-c2ccncc2)n(-c2cc(F)c(F)c(F)c2)n1)N1CCC2(CC1)C(=O)NCN2c1ccccc1
2. O=C(c1cc(-c2ccncc2)n(-c2ccc(C(F)(F)F)nc2)n1)N1CCC2(CC1)C(=O)NCN2c1ccc(F)cc1
3. CN1C(=O)NC2(CCN(C(=O)c3cc(-c4ccncc4)n(-c4ccccc4)n3)CC2)C1=O
4. O=C(c1cc(-c2ccc(Cl)nc2)n(-c2ccc(C(F)(F)F)c(F)c2)n1)N1CCC2(CC1)C(=O)NCN2c1ccc(F)cc1

result:
1: 5 to 25 µM; 2: 5 to 25 µM; 3: > 25 µM; 4: 0.001 to 5 µM

* * *

Molecular target: human TRPA1 (Homo sapiens, UniProt O75762)
Construct: expressed in transfected cells
Sequence (O75762 whole entry): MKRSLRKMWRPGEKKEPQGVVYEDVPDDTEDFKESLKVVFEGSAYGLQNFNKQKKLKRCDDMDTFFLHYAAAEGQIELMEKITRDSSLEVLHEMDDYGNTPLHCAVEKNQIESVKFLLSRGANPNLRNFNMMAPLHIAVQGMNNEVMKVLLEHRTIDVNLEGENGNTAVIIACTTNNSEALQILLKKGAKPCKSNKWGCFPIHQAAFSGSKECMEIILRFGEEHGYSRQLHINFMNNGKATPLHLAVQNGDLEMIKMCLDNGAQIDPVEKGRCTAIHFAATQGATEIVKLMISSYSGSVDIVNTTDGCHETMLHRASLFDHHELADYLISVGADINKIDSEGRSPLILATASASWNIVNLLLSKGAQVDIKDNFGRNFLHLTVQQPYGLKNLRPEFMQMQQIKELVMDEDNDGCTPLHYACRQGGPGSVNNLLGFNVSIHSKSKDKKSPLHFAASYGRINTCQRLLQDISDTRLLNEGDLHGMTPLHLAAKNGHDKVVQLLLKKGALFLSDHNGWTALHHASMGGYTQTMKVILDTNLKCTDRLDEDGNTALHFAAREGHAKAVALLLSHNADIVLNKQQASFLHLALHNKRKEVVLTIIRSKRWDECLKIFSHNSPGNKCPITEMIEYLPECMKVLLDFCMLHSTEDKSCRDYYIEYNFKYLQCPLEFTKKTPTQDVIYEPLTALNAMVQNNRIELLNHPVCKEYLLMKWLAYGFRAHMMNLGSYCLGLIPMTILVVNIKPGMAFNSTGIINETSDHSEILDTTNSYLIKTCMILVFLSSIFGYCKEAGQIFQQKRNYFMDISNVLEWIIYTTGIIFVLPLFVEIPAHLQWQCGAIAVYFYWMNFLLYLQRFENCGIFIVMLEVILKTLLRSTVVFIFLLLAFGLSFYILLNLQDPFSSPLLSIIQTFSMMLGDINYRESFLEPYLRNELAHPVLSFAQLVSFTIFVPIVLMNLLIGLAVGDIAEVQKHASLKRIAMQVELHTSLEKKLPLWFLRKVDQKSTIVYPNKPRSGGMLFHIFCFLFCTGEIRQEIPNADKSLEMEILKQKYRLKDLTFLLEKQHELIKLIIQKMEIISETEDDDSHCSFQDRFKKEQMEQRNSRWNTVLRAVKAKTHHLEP
Experiment: Cell-based functional intracellular calcium ([Ca2+]i) assay, Fluo-4/Fluo-8, FlexStation, challenge with reference TRPA1 agonist (FFA, AITC or 4-HNE)
Details: HEK293 cells expressing human TRPA1; IC50 class after addition of reference TRPA1 agonist (FFA, AITC or 4-HNE); read-out: human TRPA1-HEK Activity
Procedure: A stable HEK293 cell line that expresses human TRPA1 in an inducible manner was employed in this assay. […] The expression of TRPA1 was induced by including 1 μg/ml doxycycline in the culture medium. […] Fluorescence changes were measured using a fluid handling integrated fluorescence plate reader, FlexStation (Molecular Devices, Sunnyvale, Calif.). […]
pIC50: −log10 of the molar value.
measuredAttribute: pIC50

compound	obsValue
O=C(c1cc(-c2ccncc2)n(-c2cc(C(F)(F)F)cc(C(F)(F)F)c2)n1)N1CCC2(CC1)C(=O)NCN2c1ccccc1	4.60 to 5.30
CN1C(=O)COc2cc(NC(=O)c3cc(-c4ccncc4)n(-c4ccc(C(F)(F)F)cc4)n3)ccc21	< 4.60
N#Cc1ccc(-n2nc(C(=O)N3CCC(n4c(=O)[nH]c5ccc(F)c(F)c54)CC3)cc2-c2cccnc2)cc1C(F)(F)F	5.30 to 9.00
O=C(c1cc(-c2cnccn2)n(-c2ccc(F)c(C(F)(F)F)c2)n1)N1CCC(n2c(=O)[nH]c3ccc(F)c(F)c32)CC1	5.30 to 9.00
O=C(c1cc(-c2ccncc2)n(-c2ccc(C(F)(F)F)nc2)n1)N1CCC(n2c(=O)[nH]c3ccccc32)CC1	< 4.60

# batch size: 7; output pIC50 per entry
1. O=C(Nc1ccc2[nH]c(=O)oc(=O)c2c1)c1cc(-c2ccncc2)n(-c2ccccc2)n1
2. O=C(c1cc(-c2cccnc2)n(-c2ccc(OC(F)(F)F)cc2)n1)N1CCC(n2c(=O)[nH]c3ccc(F)c(F)c32)CC1
3. O=C(Nc1ccc2c(c1)COC2=O)c1cc(-c2ccncc2)n(-c2cnccn2)n1
4. O=C(c1cc(-c2ccncc2)n(-c2ccccc2)n1)N1CCC2(CCNC2=O)CC1
5. O=C(Nc1ccc2c(c1)COC2=O)c1cc(-c2ccncc2)n(-c2ccc(C(F)(F)F)c(F)c2)n1
6. O=C(c1cc(-c2cccnc2)n(-c2ccc(C(F)(F)F)c(F)c2)n1)N1CCC2(CC1)C(=O)Nc1ccccc12
7. O=C(c1cc(-c2cccnc2)n(-c2ccc(C(F)(F)F)cc2Cl)n1)N1CCC2(CC1)C(=O)NCN2c1ccc(F)c(F)c1

result:
4.60 to 5.30
5.30 to 9.00
< 4.60
< 4.60
< 4.60
4.60 to 5.30
5.30 to 9.00

# batch size: 4; output pIC50 per entry
1. Cc1cc(OC(F)(F)F)ccc1-n1nc(C(=O)N2CCC3(CC2)C(=O)NCN3c2ccc(F)cc2)cc1-c1cccnc1
2. O=C(c1cc(-c2ccncc2)n(-c2ccccc2)n1)N1CCN(c2ncccc2C(F)(F)F)CC1
3. O=C(c1cc(-c2ccncc2)n(-c2ccc(C(F)(F)F)c(F)c2)n1)N1CCC2(CC1)OCc1ccccc12
4. CC1CC(n2c(=O)[nH]c3ccccc32)CCN1C(=O)c1cc(-c2cccnc2)n(-c2ccc(C(F)(F)F)c(F)c2)n1 (stereo not drawn)

result:
5.30 to 9.00
< 4.60
< 4.60
5.30 to 9.00

# batch size: 5; output pIC50 per entry
1. Cc1cc(N2CNC(=O)C23CCN(C(=O)c2cc(-c4cccnc4)n(-c4ccc(F)c(C(F)(F)F)c4)n2)CC3)cc(C)c1F
2. O=C(c1cc(-c2ccncc2)n(-c2ccc(C(F)(F)F)c(F)c2)n1)N1CCC2(CC1)C(=O)NCN2c1ccc(OC(F)(F)F)cc1
3. O=C(c1cc(-c2cccnc2)n(-c2ccc(C(F)(F)F)c(F)c2)n1)N1CCC2(CC1)C(=O)NCN2c1ccc(Br)cc1
4. O=C(c1cc(-c2ccncc2)n(-c2ccc(C(F)(F)F)nc2)n1)N1CCC2(CC1)SCCS2
5. O=C(c1cc(-c2ccncc2)n(-c2ccc(C(F)(F)F)cc2)n1)N1CCC(n2c(=O)[nH]c3ccc(F)c(F)c32)CC1

result:
1: 5.30 to 9.00; 2: < 4.60; 3: < 4.60; 4: < 4.60; 5: 5.30 to 9.00

# batch size: 3; output pIC50 per entry
1. O=C(c1cc(-c2ccncc2)n(-c2ccc(C(F)(F)F)nc2)n1)N1CCC2(CC1)C(=O)NCN2c1ccc(Cl)cc1
2. O=C(c1cc(-c2ccncc2)n(-c2cnccn2)n1)N1CCC(n2c(=O)[nH]c3ccccc32)CC1
3. O=C1Nc2ccc(Cl)cc2C2(CCN(C(=O)c3cc(-c4cccnc4)n(-c4ccc(F)c(C(F)(F)F)c4)n3)CC2)O1

result:
< 4.60
4.60 to 5.30
5.30 to 9.00

* * *

Target: human TRPA1 (Homo sapiens, UniProt O75762)
Construct: expressed in transfected cells
Experiment: Cell-based functional intracellular calcium ([Ca2+]i) assay, Fluo-4/Fluo-8, FlexStation, challenge with reference TRPA1 agonist (FFA, AITC or 4-HNE)
Settings: HEK293 cells expressing human TRPA1; IC50 class after addition of reference TRPA1 agonist (FFA, AITC or 4-HNE); read-out: human TRPA1-HEK Activity
pIC50: −log10 of the molar value.
measuredAttribute: pIC50

// below: answered compounds
O=C(c1cc(-c2ccncc2)n(-c2cnccn2)n1)N1CCC(c2nc3ccccc3o2)CC1 < 4.60
O=C(c1cc(-c2ccncc2)n(-c2ccc(C(F)(F)F)cc2)n1)N1CCC2(CC1)C(=O)NCN2c1ccc(Cl)cc1 < 4.60
O=C(c1cc(-c2ccncc2)n(-c2ccccc2)n1)N1CC2(CCCC2)C1 < 4.60
Cc1cc(N2CNC(=O)C23CCN(C(=O)c2cc(-c4cccnc4)n(-c4ccc(C(F)(F)F)c(F)c4)n2)CC3)cc(C)c1F 5.30 to 9.00
Cn1c(=O)n(C2CCN(C(=O)c3cc(-c4ccncc4)n(-c4ccc(F)c(F)c4)n3)CC2)c2ccccc21 < 4.60
Cn1c(=O)c(=O)n(C)c2cc(NC(=O)c3cc(-c4ccncc4)n(-c4ccc(C(F)(F)F)c(F)c4)n3)ccc21 < 4.60
O=C(c1cc(-c2cccnc2)n(-c2ccc(C(F)(F)F)c(F)c2)n1)N1CCC(n2c(=O)[nH]c3ncccc32)CC1 5.30 to 9.00
Cn1c(=O)c(=O)n(C)c2cc(NC(=O)c3cc(-c4ccncc4)n(-c4ccc(F)c(F)c4)n3)ccc21 < 4.60
O=C(c1cc(-c2cccnc2)n(-c2ccc(C(F)(F)F)cc2C(F)(F)F)n1)N1CCC2(CC1)C(=O)NCN2c1ccc(F)cc1 5.30 to 9.00
O=C(c1cc(-c2ccccn2)n(-c2ccc(C(F)(F)F)c(F)c2)n1)N1CCC2(CC1)C(=O)NCN2c1ccc(F)cc1 4.60 to 5.30

# batch size: 4; output pIC50 per entry
1. O=C(c1cc(-c2cccnc2)n(-c2ccc(C(F)(F)F)c(F)c2)n1)N1CCC2(CC1)C(=O)NCN2c1ccc(I)cc1
2. O=C(c1cc(-c2cccnc2)n(-c2ccc(I)c(C(F)(F)F)c2)n1)N1CCC(n2c(=O)[nH]c3ccc(F)c(F)c32)CC1
3. CN1C(=O)COc2cc(NC(=O)c3cc(-c4ccncc4)n(-c4ccc(C(F)(F)F)c(F)c4)n3)ccc21
4. O=C(c1cc(-c2ccncc2)n(-c2ccc(F)c(F)c2)n1)N1CCC2(CC1)OCc1ccccc12

result:
["< 4.60", "5.30 to 9.00", "< 4.60", "< 4.60"]
